SYSTEM NAME: T1, extracellular domain of hCD4 fused with a histidine tag (hCD4-HisTag) (human, UniProt P01730 26-396)
T1 construct: extracellular domain; also called human CD4-HisTag; not shown: histidine tag
PROTOCOL SUMMARY: Biacore T200 SPR, antibody captured on Protein A, CD4-HisTag analyte, 1:1 fit, 25 C
pKd: −log10 of the molar value.
Reported pKd values for the following binders.
RECORDED METRIC: pKd

binder="Chimeric 2B6 anti-CD4 antibody (antibody, human IgG1, kappa, V domains shown) VH: EVQLQESGPSLVKPSQTLSLTCSVTGDSITSGYWNWIRKFPGHKLEFLGYISFADTTNYNPSLKSRVSITRDTSKNQFDLQLKSVTTEDTATYHCARDDYGYYAMDYWGQGISVTVSS VL: DIHLTQTTSSLSASLGDRVTIICRASQDIDNYLNWYQLKPDGTLKLLIYYTSRLHSGVPSRFSGSGSGTEYSLTISNLEREDVATYFCQQGNTLPTFGAGTKLELKR" observed_value=9.43
binder="Chimeric MT412 anti-CD4 antibody (antibody, human IgG1, kappa, V domains shown) VH: QIQLVQSGPELKKPGETVKISCKASGYTFTDYSMHWVKQAPGKDLKWMGWINTETGEPTYADDFKGRFAFSLETSASTAYLQINNLKNEDTATYFCAREDYYGHDGFLYWGQGTLVTVSS VL: DIVMTQSHKFMSTSVGDRVSITCKASQDVVTTVAWYQQKPGQSPKLLIYWASLRHTGVPDRFTGSGSGTDFTLTISNVQFEDLADYFCQQYSSYPYTFGGGTKLEIKR" observed_value=8.79
binder="Chimeric 10C2 anti-CD4 antibody (antibody, human IgG1, kappa, V domains shown) VH: EVKLQQSGTELMKPGASVKISCKATGYTFSSYWIEWIKQRPGRGLEWIGEILPGSGSTNYNEEFTGRATFTADTFSNTAYMQLSSLTSEDSAVYYCARSVSASNWYFDVWGAGTTVTVSS VL: DIVMTQSPASLAVSLGQRATISCRASQSVSTSSYSYMHWYQQKPGQPPKFLIKYASNLESGVPARFSGSGSGTDFTLNIHPVEEEDTATYYCQHSWEIPPTFGGGTKLEIKR" observed_value=8.92
binder="Chimeric 33E12 anti-CD4 antibody (antibody, human IgG1, kappa, V domains shown) VH: DVQLQESGPGLVKPSQSLSLTCTVTGYSITSDYAWNWIRQFPGNKLEWMGYISYSGITSYNPSLKSRFSITRDTSKNQFFLQLNSVTTEDTATYYCARLDSSGYGAMDYWGQGTSVTVSS VL: DIVLTQSPASLPVSLGQRATISCRASQSVSTSSYSYMHWYQQKPGQPPKLLIRYASNLESGVPARFSGSGSGTDFTLNIHPVEEEDTATYYCQHSWDFPLTFGAGTKLELKR" observed_value=8.37
binder="29B7 humanized anti-CD4 antibody (antibody, V domains shown, Expressed as heavy and light chains in Freestyle 293 cells; The description says only that humanized antibodies may have human IgG1 and human kappa constant regions; also called Humanized 29B7) VH: QVQLVQSGAEVKKPGASVKVSCKASGDSLNTHWMHWVRQAPGQRLEWIGYINPYTGSGEYSQKFKGRATLTADISASTAYMELSSLRSEDTAVYYCAYDSTGAMDYWGQGTLVTVSS VL: DIQMTQSPSSLSASVGDRVTITCKASQDINRYLSWFQQKPGKAPKTPIYRADRSVDGVPSRFSGSGSGQDYTLTISSLQPEDFATYYCQQYDEFPYTFGQGTKLEIK" observed_value=9.35
binder="MT412 humanized anti-CD4 antibody (antibody, V domains shown, Expressed as heavy and light chains in Freestyle 293 cells; The description says only that humanized antibodies may have human IgG1 and human kappa constant regions; also called Humanized MT412) VH: QIQLVQSGSELKKPGASVKVSCKASGYTFTDYSMHWVRQAPGQGLEWMGWINTETGEPTYADDFKGRFVFSLDTSVSTAYLQISSLKAEDTAVYYCAREDYYGHDGFLYWGQGTLVTVSS VL: DIQMTQSPSFLSASVGDRVTITCKASQDVVTTVAWYQQKPGKAPKLLIYWASLRHTGVPSRFSGSGSGTEFTLTISSLQPEDFATYFCQQYSSYPYTFGQGTKLEIKR" observed_value=8.74

Where these numbers come from: patent US11254745
